# MEASUREMENT_DESCRIPTION: in vivo
# CONDITION: both, cynomolgus monkey, po, 3 mg/kg, AUCINF—obs
MEASURED_ENDPOINT: AUC(0-inf) (ng·h/mL)
Answers are plain numbers, in ng·h/mL.

Challenge: What does the data say about its AUC(0-inf)? Entry: O=C(NN1C(=O)C2C3C=CC(C4CC34)C2C1=O)c1ccc(C(F)(F)F)cc1 (stereo not shown)
Response given: 4530

====

# MEASUREMENT_DESCRIPTION: in vivo
# CONDITION: both, New Zealand White, rabbit, iv, 60 mg/kg, AUC0-24 hr
MEASURED_ENDPOINT: AUC(0-t) (ng·h/mL)
Give bare numbers, in ng·h/mL.

Challenge: Quick check: AUC(0-t) of O=C(NN1C(=O)C2C3C=CC(C4CC34)C2C1=O)c1ccc(C(F)(F)F)cc1 (stereo not shown) ?
Response given: 61800

====

# MEASUREMENT_DESCRIPTION: in vivo
# CONDITION: both, cynomolgus monkey, iv, 10 mg/kg, CL
MEASURED_ENDPOINT: clearance (mL/min/kg)
Answers are plain numbers, in mL/min/kg.

Challenge: What measured clearance goes with O=C(NN1C(=O)C2C3C=CC(C4CC34)C2C1=O)c1ccc(C(F)(F)F)cc1 (stereo not shown) [ST-246] ?
Response given: 7.97

====

# MEASUREMENT_DESCRIPTION: in vivo
# CONDITION: both, cynomolgus monkey, po, 20 mg/kg
MEASURED_ENDPOINT: AUC(0-t) (ng·h/mL)
Give bare numbers, in ng·h/mL.

Challenge: Find the recorded AUC(0-t) belonging to O=C(NN1C(=O)C2C3C=CC(C4CC34)C2C1=O)c1ccc(C(F)(F)F)cc1 (stereo not shown) and report it.
Response given: 13400

====

# MEASUREMENT_DESCRIPTION: in vivo
# CONDITION: male, New Zealand White, rabbit, iv, 30 mg/kg, AUC0-24
MEASURED_ENDPOINT: AUC(0-t) (ng·h/mL)
One number for each entry, in ng·h/mL.

Challenge: So what does the record say about AUC(0-t) for O=C(NN1C(=O)C2C3C=CC(C4CC34)C2C1=O)c1ccc(C(F)(F)F)cc1 (stereo not shown) ?
Response given: 16200

====

# MEASUREMENT_DESCRIPTION: in vivo
# CONDITION: female, CD-1, mouse, iv, 3 mg/kg, AUC0-24
MEASURED_ENDPOINT: AUC(0-t) (ng·h/mL)
Give bare numbers, in ng·h/mL.

Challenge: Find the recorded AUC(0-t) belonging to O=C(NN1C(=O)C2C3C=CC(C4CC34)C2C1=O)c1ccc(C(F)(F)F)cc1 (stereo not shown) and report it.
Response given: 67900

====

# MEASUREMENT_DESCRIPTION: in vivo
# CONDITION: both, cynomolgus monkey, iv, 3 mg/kg, Tmax
MEASURED_ENDPOINT: Tmax (h)
Answers are plain numbers, in h.

Challenge: So what's the measured Tmax for this one? O=C(NN1C(=O)C2C3C=CC(C4CC34)C2C1=O)c1ccc(C(F)(F)F)cc1 (stereo not shown)
Response given: 4

====

# MEASUREMENT_DESCRIPTION: physchem
# CONDITION: oil or lipid, thermodynamic from solid, absolute solubility of ST-246 in oils
MEASURED_ENDPOINT: solubility

Challenge: GET /values?readout=solubility&item= O=C(NN1C(=O)C2C3C=CC(C4CC34)C2C1=O)c1ccc(C(F)(F)F)cc1 (stereo not shown) [ST-246]
Response given: < 5000 µg/mL
